experiment: DPPH* free-radical scavenging anti-oxidant assay; settings: absorbance at 595 nm, after 30 minutes of incubation at 25° C.; read-out: molar activity (EC50, concentration that lowers the zero time optical absorbance of DPPH by 50 percent)
propertyLabel: pEC50
Would you please state pEC50, meaning minus log10 of the concentration in mol/L, as a bare number?

Consider O.O.O=c1c(O)c(-c2ccc(O)c(O)c2)oc2cc(O)cc(O)c12 [quercetin dihydrate] . Its measured pEC50 is 4.07

Consider Cc1c(C)c2c(c(C)c1O)CC[C@@](C)(CCC[C@H](C)CCC[C@H](C)CCCC(C)C)O2 . Its measured pEC50 is 4.34

Consider O=C1O[C@H]([C@@H](O)CO)C(O)=C1O . Its measured pEC50 is 4.59

Consider CCCCCCCCCCCCCCCC(=O)OC[C@H](O)[C@H]1OC(=O)C(O)=C1O [ascorbyl palmitate] . Its measured pEC50 is 4.52
